# System: UACC-62 melanoma
# Protocol summary: NCI-60 one-dose screen, 48 h
# Condition set: 10 µM unless noted
The panel holds about 83,000 compounds, 20% with a hit somewhere; the sample as a whole holds those more often. Activity calls are given as the source filed them. The calls were made as follows: active = growth percent below 10; inactive = the rest.
In this exercise, the only acceptable responses are 1.0 = active, 0.0 = inactive

Compound | Assigned class
COc1cc(NCCCCN=C(N)NC(N)=NC(C)C)c2ncccc2c1 | 0.0
CCOC(=S)SCc1ccc(Cl)cc1 | 0.0
COc1cccc(-c2nc3sccn3c2-c2ccnc(NCCCNS(=O)(=O)c3ccc(Cl)cc3)c2)c1 | 1.0
COc1ccc(-c2cc(NC(=O)Nc3ccc(O)cc3)no2)cc1 | 0.0
O=C1/C(=C/c2ccc(F)cc2)CN(C(=O)CCN2CCC(=NO)CC2)C/C1=C\c1ccc(F)cc1 | 1.0

[Q] Outcome logged for `S=c1[nH]nc(CSc2ncnc3c2c(-c2ccccc2)cn3-c2ccc(Cl)cc2)o1` in this assay:
[A] 0.0

[Q] # fetch the recorded call for `Cc1ccc2cnc(N)c(C#Cc3cncc(C(=O)Nc4ccc(CN5CCN(C)CC5)c(C(F)(F)F)c4)c3)c2c1` here
[A] 1.0

[Q] Status in this test for `COc1ccc2nc3cc(Cl)ccc3c(N3CCN(c4nccc(Nc5ccccc5)n4)CC3)c2c1` ?
[A] 0.0

[Q] Could you check what this test reported for `COc1cc(NC(N)=NCC(C)(C)COc2ccc(C(F)(F)F)cc2)cnc1C#N` ?
[A] 0.0

* * *

# System: SR leukemia
# Protocol summary: NCI-60 one-dose screen, 48 h
# Condition set: 10 µM unless noted
The panel holds about 83,000 compounds, 20% with a hit somewhere; the sample as a whole holds those more often. Calls of active or inactive are those of the source. The calls were made as follows: active = growth percent below 10; inactive = the rest.
Give one outcome, nothing more. List: 1 = active, -1 = inactive

Molecule | Assigned class
CCc1ccc(C(c2ccc(CC)cc2)C(Cl)(Cl)CCl)cc1 | -1

[Q] # lookup: test call for `Cc1ccc(SCN2CCN(c3cccc(Cl)c3)CC2)cc1`
[A] -1

[Q] Write down the call the test reported for this molecule. Item: `O=C(N/N=C/c1ccc(O)cc1O)c1cccnc1`
[A] 1

[Q] Tell me the assay call for O=C1Nc2ccccc2C12CC(c1ccc(Cl)cc1)=NN2 (centres undefined) please.
[A] -1

[Q] How did this test come out for `COc1cc(OC)c(/C=C/c2cc[n+](C)c3ccccc23)c(OC)c1` ?
[A] 1

* * *

# System: 786-0 renal
# Protocol summary: NCI-60 one-dose screen, 48 h (100 = growth as untreated, 0 = no growth, -100 = all killed)
# Condition set: 10 µM unless noted
Compounds without any hit were thinned out: in the full panel of roughly 83,000, 20% have a hit.
Class yes: growth at least 80%. Class no: growth below 80%.

Here's what some known entries look like.
Compound | Assigned class
CCC(c1ccccc1)C(CC)c1ccc(O)c(O)c1 (stereo unspecified) | yes
COc1cnc2c(c1)C(=O)c1c-2n(CCCN2CCNCC2)c(=O)c2cc([N+](=O)[O-])ccc12 | no
COc1ccc(C2Nc3ccccc3-n3cccc32)cc1 (stereo unspecified) | yes
O=C(/C=C\c1ccc2ccccc2n1)c1cc(Cl)ccc1O | no
NC(N)=Nc1ccc(S(=O)(=O)O)cc1 | yes

Shift focus to the following entry.
[Q] // inclusive: growth at least 80%? input: `CN1CCN(Cc2ccc(NC(=O)c3cncc(C#Cc4c(N)ncc5ccc(C#N)cc45)c3)cc2C(F)(F)F)CC1`
[A] no

* * *

# Tested on: COLO 205 colon
# Protocol summary: NCI-60 one-dose screen, 48 h (100 = growth as untreated, 0 = no growth, -100 = all killed)
# Condition set: 10 µM unless noted
About 83,000 compounds went through this panel and 20% of them were active in at least one assay; those are over-represented in the sample as a whole.
Recorded metric: growth (%)
Answers are plain numbers, in %.

Example cases with answers are listed next.
Compound | Quantity unit | growth
CSc1ccc(N=C=C(c2ccccc2)c2ccccc2)cc1 | % | 107
O=C1c2cc3c(cc2-c2c1c1cc(Cl)c(Cl)cc1c(=O)n2C[C@H](O)CO)OCO3 | % | -39.4
CN1/C(=C\C=C\C2=[N+](C)c3ccccc3C2(C)C)C(C)(C)c2ccccc21 | % | -88.5

Hi, could you look up growth for each item in my list?
1. COc1c2ccccc2c(OC)c2[nH]c(=O)ccc12
2. CCCC(=O)Oc1ccc(/C(=C(/CC)Cc2ccccc2)c2ccc(OCCN3CCCC3)cc2)cc1
3. CNC(=O)c1cc(Oc2ccc3nc(NC(=O)Nc4ccc(N5CCC(N(C)C)CC5)cc4)sc3c2)ccn1
4. CN(C)c1ccc(C2Nc3ccccc3-n3cccc32)cc1 (stereo unspecified)
5. O=C(Nc1ccc(Nc2cc(Nc3ccccc3)ncn2)cc1)Nc1cc(C(F)(F)F)ccc1F
6. O=C1C=CC(=O)c2c1nc1n2CCCC1
7. COc1ccc2nc3cc(Cl)ccc3c(N3CCN(c4nccc(Nc5ccccc5)n4)CC3)c2c1
8. Cc1cc2c(cc1C)NC1=C(N2)OC(c2c3ccccc3cc3ccccc23)C1=O (stereo unspecified)

[A]
38.2
-6.63
80
96
64.4
33.2
89.8
-40.7

* * *

# System: HOP-92 NSCLC
# Protocol summary: NCI-60 one-dose screen, 48 h (100 = growth as untreated, 0 = no growth, -100 = all killed)
# Condition set: 10 µM unless noted
About 83,000 compounds went through this panel and 20% of them were active in at least one assay; those are over-represented in the sample as a whole.
Recorded metric: growth (%)
Give bare numbers, in %.

// below: answered compounds
Compound | growth [%]
COc1ccc(C2Nc3ccccc3-n3cccc32)cc1 (stereo not given) | 74.2
CC(=O)CC(C)(C)c1ccc(Cl)cc1 | 80
Cc1ccc2c(c1)C(=O)c1c-2c(OCCCN(C)C)nc2ccccc12 | -10.7
Oc1c(Cl)cc(Cl)cc1CNc1nccnn1 | 101
COCCOC(=O)C1=C(C)NC(=S)NC1c1ccc2c(c1)OCO2 (stereo not given) | 108
COc1ccccc1/C=C(/C(=O)c1ccccc1)c1ccccc1 | 75.7

Consider the following items and state reported growth for each.
1. Cc1ccc(-c2nc(/C=N/Nc3cc(C)nc4ccc(Cl)cc34)c(C)o2)cc1
2. O=C1NC(=O)C(CC(=O)n2c(-c3ccccc3)nc3ccccc32)C(=O)N1
3. CC[C@H](Nc1cc(C)nc(N)n1)c1nc2cccc(NCc3ccc(C(=O)NO)cc3)c2c(=O)n1-c1ccccc1
4. O=C(CN1CCN(c2cc3c(cc2F)c(=O)c(C(=O)N/N=C/c2ccccc2)cn3C2CC2)CC1)N/N=C\c1ccccc1
5. O=C(CN1CCN(c2cc3c(cc2F)c(=O)c(C(=O)O)cn3C2CC2)CC1)Nc1nc(-c2ccccc2)cs1
6. COc1cccc(-c2nc3sccn3c2-c2ccnc(NCCCNS(=O)(=O)c3ccc(Cl)cc3)c2)c1

[A]
29.9
97.5
-3.07
76
70.8
72

* * *

# Tested on: HT29 colon
# Protocol summary: NCI-60 one-dose screen, 48 h (100 = growth as untreated, 0 = no growth, -100 = all killed)
# Condition set: 10 µM unless noted
The panel holds about 83,000 compounds, 20% with a hit somewhere; the sample as a whole holds those more often.
Note to self: values exactly at 40% are Fulfilled. So growth at or above 40% is Fulfilled, below is Not fulfilled.

Compound | Assigned class
CC/C(Cc1ccccc1)=C(\c1ccc(OCCN2CCCC2)cc1)c1ccc(OC(C)=O)cc1 | Not fulfilled

[Q] Answer whether growth of `COc1ccc(S(=O)(=O)NCCCNc2cc(-c3c(-c4cccc(OC)c4)nc4sccn34)ccn2)cc1` is greater than or equal to 40%.
[A] Not fulfilled

[Q] Quick check, growth >= 40%? `C#Cc1nc2ccccc2c(=O)[nH]1`
[A] Not fulfilled

[Q] Item `COc1cnc2c(c1)C(=O)c1c-2n(CCCN2CCCC2)c(=O)c2cc([N+](=O)[O-])ccc12` with growth of 40% or above?
[A] Not fulfilled

[Q] Exam item: decide whether the reported growth for `COc1cc(C#N)cc(OC)c1OCCN(CCOc1c(OC)cc(C#N)cc1OC)S(=O)(=O)c1ccc(C)cc1` is at least 40%.
[A] Fulfilled

[Q] Reported growth at or above 40%? `CCN1CCN(Cc2ccc(NC(=O)Nc3nc4ccc(Oc5ccnc(C(=O)NC)c5)cc4s3)cc2C(F)(F)F)CC1`
[A] Not fulfilled

[Q] Please indicate if the recorded growth for ClC1=C2NC=NC2n2c(nnc2-c2ccc(Cl)cc2)N1 (stereo not drawn) meets or exceeds 40%.
[A] Fulfilled

[Q] I'd appreciate it if you could say whether COc1ccc2nc3cc(Cl)ccc3c(NCCNCC(O)CO)c2c1 (stereo not drawn) has growth at least equal to 40%.
[A] Not fulfilled

[Q] Quick check: does C=C1CCC2C3(C)COC(c4ccc(OC)cc4Br)OC3CCC2(C)C1/C=C/C1=CCOC1=O (stereo not drawn) have growth greater than or equal to 40%?
[A] Fulfilled

[Q] For this compound, is measured growth 40% or higher? `COc1ccc(-c2cc(C(=O)N=Nc3c(O)[nH]c4ccccc34)no2)cc1`
[A] Fulfilled

[Q] growth >= 40% for `O=C(Nc1ccc(Nc2cc(Nc3ccccc3)ncn2)cc1)Nc1cc(C(F)(F)F)ccc1F` ?
[A] Fulfilled

[Q] Could you please find out whether `CCOC(=O)/C=C/c1ccc(C(=O)OCC)[nH]1` has growth that meets 40% or exceeds it?
[A] Not fulfilled

[Q] Textbook exercise: given the entry `COc1cc2nc3cc([N+](=O)[O-])ccc3c(NCCCNCC(C)(C)O)c2cc1OC` , state whether its growth is greater than or equal to 40%.
[A] Not fulfilled

[Q] Please check the record `CSc1ccc(N=C=C(c2ccccc2)c2ccccc2)cc1` and state if its growth is at or above 40%.
[A] Fulfilled
